B1: TPR t1 (parent)
chain: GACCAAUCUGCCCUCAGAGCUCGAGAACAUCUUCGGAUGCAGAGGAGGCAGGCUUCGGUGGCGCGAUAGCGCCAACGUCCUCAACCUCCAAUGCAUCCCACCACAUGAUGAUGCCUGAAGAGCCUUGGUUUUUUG

# Variants of: B1
# Test name: polymerase ribozyme fitness, log enrichment relative to wild type (log ratio); higher = more active; in vitro selection for triplet polymerase activity
Readout type: polymerase ribozyme fitness (log ratio)
Just the number, please, no unit after it.

Consider the worked cases shown below.
Sequence input	polymerase ribozyme fitness (log ratio)
GACCAAUCUGCCCUCAGAGCUCGAGAACAUCUUUGGAUGCAGAGGAGGCAGGCUUCGGUGGCGCGAUAGCGCCAACGUCCUCAACCUCCAAUGCAUCCCACCACAUGAUGAUGCCUGAAGAGCCAUGGUUUUUUG [C34U U125A]	-4.8
GGCCAAUCUGCCCUCAGAGCUCGAGAACAUCUUCGGAUGCAGAGGAGGCAGGCUUCGGUGGCGCGAUAGCGCCAACGUCCUCAACCUCCAAUGCAUCCCACCACAUGAUGAUGCCUGAAAAGCCUUGGUUUUUUG [A2G G120A]	0.359
GAUCAAUCUGCCCUCAGAGCUCGAGAACAUCUUCGGAUGCAGAGGAGGCAGGCAUCGGUGGCGCGAUAGCGCCAACGUCCUCAACCUCCAUUGCAUCCCACCACAUGAUGAUGCCUGAAGAGCCUUGGUUUUUUG [C3U U54A A91U]	-2.48
GACCAAUCUGCCCUCAGAGCUCGAGAACAUCUUCGGAUGCAGAGGAGGCAGGCUUCGGCGGCGCGAUAGCGCCAACGUCCUCAACUUCCAAUGCAUCCCACCACAUGAUGAUGCCUGAAGAGCCUUGGUUUUUUG [U59C C86U]	-1.17
GACCAAUCUGCCCUCAGAGCUCGAGAACAUCUUCGGAUGCAGAGGAGGCAGGCUUCGGUGGCGCGAUAUCGCCAACGUCCUAAACCUCCAAUGCAUCCCACCAUAUGAUGAUGCCUGAAGAGCCUUGGUUUUUUG [G69U C82A C104U]	0.152

QUERY: Give the reported polymerase ribozyme fitness (log ratio) for this variant. GACCAAUCUGCCCUCAGAGCUCGAGAACAUCUUCGGAUGCAGAGGUGGCAGGCUUCGGUGGCGCGAUAGCGCCAAAGUCCUCACCCUCCAAUGCAUCCCCCCACAUGAUGAUGCCUGAAGAGCAUUGGUUUUUUG [A46U C76A A84C A100C C124A]
RESULT: -4.99

QUERY: Give the reported polymerase ribozyme fitness (log ratio) for this variant. GACCAAUCUGCCCUCAGAGCCCGAGAACAUCUUCGGAUGCAGAGGAGGCAGGCUUAGGUGGCGCGAUAGUGCCAACGUCCUCAACCUCCAAUGCAUCCCACCACAUGAUUAUGCCUGAAGAGCCUUGGUUUUUUG [U21C C56A C70U G110U]
RESULT: -6.01

QUERY: Give the reported polymerase ribozyme fitness (log ratio) for this variant. GACCUAUCUGCCCUCAGAGCUCGAGAACAUCUUCGGAUGCAGAGGAGGCAGGCUUCGGUGGCGCGAUAGCGCCAACGUCCUCAACCUCCAAUGCAUCCCACAACAUGAUGAUGCCUGAAGAGCCUUGGUUUUUUG [A5U C102A]
RESULT: -2.01

QUERY: Give the reported polymerase ribozyme fitness (log ratio) for this variant. GACCCAUCUGCCCUCAGAGCUCGAGAAUAUCUUCGGAUGCAGAGGAGGCAGGCUUCGGCGGCGCGAUAGCGCCAACGUCCUCAACCUCCAAUGCAUCCCACCACAUGAUGAUGCCUGAAGAGUCUUGGUUUUUUG [A5C C28U U59C C123U]
RESULT: -3.1

QUERY: Give the reported polymerase ribozyme fitness (log ratio) for this variant. GACCAAUCUGCCCUGAGAGCUCGAGAACAUCUUCGGAUGCAGACGAAGCAGGCUUCGGUGGCGCGAUAUCGCCAACGUCCUCAACCUCCAAUGCAUCCCACCACAUGAUGAUGCCUGAAGAGCCUUGGUUUUUUG [C15G G44C G47A G69U]
RESULT: -3.06

QUERY: Give the reported polymerase ribozyme fitness (log ratio) for this variant. GACCAAACUGCCCUCAGAGCUCGAGAACAUCUUCGGAUGCAGAGGAGGCAGGCUUCGGUGGCGCGAUAGCGCCAACGUCCUCAACCUCCAAUGCAUCCCACCAGAUGAUGAUGCCUGAAGAGCCUUGGUUUUUUG [U7A C104G]
RESULT: -6.47

QUERY: Give the reported polymerase ribozyme fitness (log ratio) for this variant. GACCAAUCUGGCCUCAGAACUCGAGAACAUCUUCGGAUGCAGAGGAGGCAGGCUUUGGUGGCGCGAUAGCGCUAACGUCCUCAACCUCCAAUGCAUCCCACCACAUGAUGAUGCCUGAAGAGCCUUGGUUUUUUG [C11G G19A C56U C73U]
RESULT: -2.04

QUERY: Give the reported polymerase ribozyme fitness (log ratio) for this variant. GACCAAUCUGCCCUCAGAGCUCGAGAACAUCUUCGGAUGCAGAGGAGCCAGGCUUCGGCGGCGCGAUAGCGCCAACGUCCUCCACCUCCAAUGCAUCCCACCACAUGAUGAUGACUGAAGAGCCUUGGUUUUUUG [G48C U59C A83C C114A]
RESULT: -2.11

QUERY: Give the reported polymerase ribozyme fitness (log ratio) for this variant. GACCAAUCUGCCCUCAGAGCUCGUGAACAUCUUCGGAUGCAGAGGAGGCAGGCUUCGGUGGCGCGAUAGCGCCAACGUCCUCAACCUCCAAUGCAUCCCACCACAUGAUGAUGCCUGAAGAGCGUUGGUUUUUUG [A24U C124G]
RESULT: -5.19

QUERY: Give the reported polymerase ribozyme fitness (log ratio) for this variant. GACCAAUCUGCCCUCAGAGCUCGAGAACAUCUUCGGAUGCAGAGGAGGUAGGCUUCGGUGGCGCGAUAGCGCCAACGUCCUCAACCUCCAAUGCAUCCCACCACAAGAUGAUGCCUGAAGAGCCUAGGUUUUUUG [C49U U106A U126A]
RESULT: -2.78

QUERY: Give the reported polymerase ribozyme fitness (log ratio) for this variant. GACCAAUCUGCCCUCAGAGCUCGAGAACAUCUUCGGAUGCAGAGGAGGCAGGCUUCGGUGGCGCGAUACCGCCAACGUCCUCAACCUCCAAUGCAUCCCACCACAUGAUGAUGCCUGAAUAGGCUUGGUUUUUUG [G69C G120U C123G]
RESULT: -0.319

QUERY: Give the reported polymerase ribozyme fitness (log ratio) for this variant. GACCAGUCUGCCCUCAGAGCUCGAGAACAUCUUCGGAUGCAGAGGAGACAGGCUUCGGUGGCGCGAUAACGCCAACGUCCUCAACCUCCAAUGCAUCCCACCACAUGAUGAUGCCUGAAGAGCCUUGGGUUUUUG [A6G G48A G69A U129G]
RESULT: -5.25

Each recorded value in this set is attributed to the RNAGym collection of RNA variant scans (doi:10.1073/pnas.2313332121).
